Test system: K. pneumoniae ATCC 700603
Measurement protocol: MIC broth microdilution, K. pneumoniae
Assay type: cell-based, Klebsiella pneumoniae
Setup conditions: Klebsiella pneumoniae, ATCC700603, read-out: Minimum Inhibitory Concentration
Observable: MIC

# count of solved cases: 5
>>> print(df.to_string())
                                   compound      result
0  CCCCC1CC(O)(CN)C2(O)OC3C(NC)C(O)C(NC)C(O)C3OC2O1 (stereo not drawn) [AmTroSPC (13)]  > 64 µg/mL
1  CCCC[C@@H]1C[C@@H](N)[C@]2(O)O[C@@H]3[C@@H](NC)[C@@H](O)[C@@H](NC)[C@H](O)[C@H]3O[C@@H]2O1 [Amino TroSPC (11)]  > 64 µg/mL
2  CCCCC1CC(O)(CNCc2ccc(F)cc2)C2(O)OC3C(NC)C(O)C(NC)C(O)C3OC2O1 (stereo not drawn) [bAmTroSPC (6)]  > 64 µg/mL
3  CCCCC1CC(O)(CNCCc2ccc(F)cc2)C2(O)OC3C(NC)C(O)C(NC)C(O)C3OC2O1 (stereo not drawn) [eAmTroSPC (8)]  > 64 µg/mL
4  CCCC[C@@H]1C[C@@H](NC(=O)Cc2ccccn2)[C@]2(O)O[C@@H]3[C@@H](NC)[C@@H](O)[C@@H](NC)[C@H](O)[C@H]3O[C@@H]2O1 [TroSPA (4)]  > 64 µg/mL

I am curious: what MIC value has been reported for CN[C@@H]1[C@H](O)[C@H](NC)[C@H]2O[C@@]3(O)C(=O)C[C@@H](C)O[C@H]3O[C@@H]2[C@H]1O [SPC (1), spectinomycin] ?
512 µg/mL

====

The following molecules have recorded Efflux Ratio on M. tuberculosis H37Rv.

Here are 2 molecules together with their reported answers.
Molecule	Efflux Ratio
CCCC[C@@H]1C[C@@H](NC(=O)Cc2ccccn2)[C@]2(O)O[C@@H]3[C@@H](NC)[C@@H](O)[C@@H](NC)[C@H](O)[C@H]3O[C@@H]2O1 [TroSPA (4)]	2
CN[C@@H]1[C@H](O)[C@H](NC)[C@H]2O[C@]3(O)[C@H](O[C@@H]2[C@H]1O)O[C@H](C)C[C@@]3(O)CNCCc1ccc(F)cc1 [eAmSPC (7), reference compound]	4

Would you mind telling me what Efflux Ratio value was observed for CCCC[C@@H]1C[C@@H](N)[C@]2(O)O[C@@H]3[C@@H](NC)[C@@H](O)[C@@H](NC)[C@H](O)[C@H]3O[C@@H]2O1 [Amino TroSPC (11)] ?
8

Which value of Efflux Ratio has been reported for CCCCC1CC(O)(CN)C2(O)OC3C(NC)C(O)C(NC)C(O)C3OC2O1 (stereo not drawn) [AmTroSPC (13)] in the records?
8

Record request: Efflux Ratio value, item CN[C@@H]1[C@H](O)[C@H](NC)[C@H]2O[C@]3(O)[C@H](O[C@@H]2[C@H]1O)O[C@H](C)C[C@@]3(O)CNCc1ccc(F)cc1 [bAmSPC (5), reference compound]
8

What Efflux Ratio value was documented for this molecule, CCCCC1CC(O)(CNCc2ccc(F)cc2)C2(O)OC3C(NC)C(O)C(NC)C(O)C3OC2O1 (stereo not drawn) [bAmTroSPC (6)] ?
8

# get_value(readout='Efflux Ratio', item= CCCCC1CC(O)(CNCCc2ccc(F)cc2)C2(O)OC3C(NC)C(O)C(NC)C(O)C3OC2O1 (stereo not drawn) [eAmTroSPC (8)] )
8

What value of Efflux Ratio has been reported for the following molecule? CN[C@@H]1[C@H](O)[C@H](NC)[C@H]2O[C@@]3(O)C(=O)C[C@@H](C)O[C@H]3O[C@@H]2[C@H]1O [SPC (1), spectinomycin]
16

Which Efflux Ratio reading was recorded for the molecule CCCC[C@@H]1CC(=O)[C@]2(O)O[C@@H]3[C@@H](NC)[C@@H](O)[C@@H](NC)[C@H](O)[C@H]3O[C@@H]2O1 [TroSPC (2), trospectomycin, reference compound] ?
16
